These entries and their values trace back to patent US20180009892A1.

- System Name: T1, human ROR1 extracellular domain (ECD) protein (human, UniProt Q01973 30-406)
- T1 construct: also called hROR1-ECD; human ROR1-ECD
- T1 sequence (Q01973 30-406 limits assumed): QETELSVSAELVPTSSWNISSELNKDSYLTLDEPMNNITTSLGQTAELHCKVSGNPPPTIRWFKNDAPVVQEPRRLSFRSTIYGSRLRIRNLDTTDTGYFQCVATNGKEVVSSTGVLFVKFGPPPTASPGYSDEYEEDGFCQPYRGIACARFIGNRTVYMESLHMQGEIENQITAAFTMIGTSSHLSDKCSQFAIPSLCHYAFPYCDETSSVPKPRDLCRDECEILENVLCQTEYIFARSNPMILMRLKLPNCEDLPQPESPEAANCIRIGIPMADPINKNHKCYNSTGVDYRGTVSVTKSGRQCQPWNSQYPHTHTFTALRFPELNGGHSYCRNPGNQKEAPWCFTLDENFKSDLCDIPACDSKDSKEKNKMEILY
- Protocol Text: competitive phage ELISA: soluble ROR1 against ROR1-coated plate
Reported Metric: pIC50
API: returns pIC50 as number; meaning -log10 of concentration in mol/L.

Q) Give recorded pIC50. P601-13 (scFv, V domains shown) VH: EVQLVQSGAEVKKPGSSVKVSCKASGGTFSTFAINWVRQAPGQGLEWMGGVIPVSGTEDYSQKFQGRLSLTADESTGTAYMELSSLRSDDTAVYYCARDRSGRDWDYFDYWGQGTLVTVSS VL: DIVMTQSPSSLSASVGDRVTITCQASQDISNYLNWYQQKPGKAPKLLIYDASNLETGVPSRFSGSGSGTDFIFTISSLQPEDIATYYCQQFDNLPYTFGQGTKVEIKR
A) 8.92

Q) Please list pIC50 recorded for the binder P601-102 (scFv, V domains shown) VH: QMQLVQSGGDLVQPGGSLRLSCAASGFTFSSYSMNWVRQAPGKGLEWVSSISSSSSYIYYADSVKGRFTISRDNAKNSLYLQMNSLRAEDTAVYYCARGLGGWTHDAFDIWGQGTTVTVSS VL: QSALTQPASVSGSPGQSITISCTGTSSDVGGYNYVSWYQQHPGKAPKLMIYDVSKRPSGVSNRFSGSKSGNTASLTISGLQAEDEADYYCSSYTSSSTSVVFGGGTKLTVL
A) 7.99

Q) For the binder P601-69 (scFv, V domains shown) VH: QVQLVQSGAEVKKPGESLKISCKGSGYSFTSYWIGWVRQMPGKGLEWMGIIYPGDSDTRYSPSFQGQVTISADKSISTAYLQWSSLKASDTAMYYCARLSSSSYDAFDIWGQGTMVTVSS VL: QSALTQPASVSGSPGQSITISCTGTSSDVGGYNYVSWYQQHPGKAPKLMIYDVSNRPSGVSNRFSGSKSGNTASLTISGLQAEDEADYYCSSYTSSSIPWVFGGGTKLTVL , report pIC50.
A) 8.01
